targetUnderTest: Human MNL PDE IV
assayDetails: Inhibition of Phosphodiesterase Type IV From Human Mononuclear Lymphocytes (MNL)
assayContext: human mononuclear lymphocyte PDE IV; in presence of 10^-4 M cGMP; 1.2 μM 3H-cAMP, pH 7.1, 10 min at 37° C.

[
  {
    "compoundString": "O=C(c1ccccc1)c1ccc2nc3[nH]c(=O)[nH]c3cc2c1",
    "targetUnderTest": "Human MNL PDE IV",
    "IC50": "5.8 µM"
  },
  {
    "compoundString": "CN(C(=O)CO/N=C(/c1ccccc1)c1ccc2nc3[nH]c(=O)[nH]c3cc2c1)C1CCCCC1",
    "targetUnderTest": "Human MNL PDE IV",
    "IC50": "2.6 µM"
  },
  {
    "compoundString": "CN(C(=O)CO/N=C(\\c1ccccc1)c1ccc2nc3[nH]c(=O)[nH]c3cc2c1)C1CCCCC1",
    "targetUnderTest": "Human MNL PDE IV",
    "IC50": "0.49 µM"
  },
  {
    "compoundString": "CCOC(=O)CCCCO/N=C(\\c1cccnc1)c1ccc2nc3[nH]c(=O)[nH]c3cc2c1",
    "targetUnderTest": "Human MNL PDE IV",
    "IC50": "1.7 µM"
  },
  {
    "compoundString": "CCOC(=O)CCCCO/N=C(/c1cccnc1)c1ccc2nc3[nH]c(=O)[nH]c3cc2c1",
    "targetUnderTest": "Human MNL PDE IV",
    "IC50": "3.6 µM"
  },
  {
    "compoundString": "COc1ccc(C(=O)c2ccc3nc4[nH]c(=O)[nH]c4cc3c2)cc1OC",
    "targetUnderTest": "Human MNL PDE IV",
    "IC50": "4.5 µM"
  }
]

###

Reported pIC50 values follow for various compounds
targetUnderTest: Canine heart PDE III (Canis lupus familiaris)
Construct: canine and human heart phosphodiesterase PDE III; from tissue; host or cells: canine heart (muscle)
Sequence (A0A8I3NYE0 1-1135): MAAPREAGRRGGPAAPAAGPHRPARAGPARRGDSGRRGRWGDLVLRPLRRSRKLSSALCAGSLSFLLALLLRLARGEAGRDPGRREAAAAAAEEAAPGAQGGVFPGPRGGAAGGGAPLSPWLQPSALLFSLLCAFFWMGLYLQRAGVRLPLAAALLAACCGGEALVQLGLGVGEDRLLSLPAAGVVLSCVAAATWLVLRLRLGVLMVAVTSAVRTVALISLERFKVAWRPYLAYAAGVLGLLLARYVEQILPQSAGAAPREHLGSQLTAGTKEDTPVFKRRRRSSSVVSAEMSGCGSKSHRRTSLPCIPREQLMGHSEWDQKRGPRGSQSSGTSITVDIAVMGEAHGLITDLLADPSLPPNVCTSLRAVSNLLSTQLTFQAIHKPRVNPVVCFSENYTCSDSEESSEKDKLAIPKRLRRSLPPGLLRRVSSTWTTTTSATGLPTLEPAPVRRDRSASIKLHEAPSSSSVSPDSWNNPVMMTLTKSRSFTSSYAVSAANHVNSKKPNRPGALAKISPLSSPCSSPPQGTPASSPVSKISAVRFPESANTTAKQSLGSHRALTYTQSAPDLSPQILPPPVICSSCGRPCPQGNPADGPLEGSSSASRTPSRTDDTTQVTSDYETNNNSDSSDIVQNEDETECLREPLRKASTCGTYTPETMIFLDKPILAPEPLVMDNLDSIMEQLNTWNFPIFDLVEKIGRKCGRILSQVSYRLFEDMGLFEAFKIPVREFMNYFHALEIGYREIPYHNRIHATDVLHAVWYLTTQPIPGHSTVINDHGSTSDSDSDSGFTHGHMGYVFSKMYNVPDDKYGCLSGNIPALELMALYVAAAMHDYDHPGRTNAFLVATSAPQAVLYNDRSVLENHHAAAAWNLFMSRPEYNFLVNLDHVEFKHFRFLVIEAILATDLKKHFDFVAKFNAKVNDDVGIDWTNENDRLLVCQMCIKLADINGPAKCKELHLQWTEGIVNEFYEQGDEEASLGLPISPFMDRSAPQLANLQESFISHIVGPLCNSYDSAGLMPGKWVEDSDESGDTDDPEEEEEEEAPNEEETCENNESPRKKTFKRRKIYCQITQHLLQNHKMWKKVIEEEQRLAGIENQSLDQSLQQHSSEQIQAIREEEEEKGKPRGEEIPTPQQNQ
assayDetails: Inhibition of Phosphodiesterase Type III (PDE III), canine heart
Type: biochemical
assayContext: 1.2 μM 3H-cAMP, pH 7.1, 10 min at 37° C.
pIC50: −log10 of the molar value.
valueType: pIC50

[
  {
    "compound": "O=C(O)CCCCON=C(c1cccnc1)c1ccc2nc3[nH]c(=O)[nH]c3cc2c1 [Compound 14, monohydrate]",
    "valueType": "pIC50",
    "reportedMeasurement": 7.00
  },
  {
    "compound": "O=C(c1cccnc1)c1ccc2nc3[nH]c(=O)[nH]c3cc2c1 [Compound 5, monohydrate]",
    "valueType": "pIC50",
    "reportedMeasurement": 7.38
  },
  {
    "compound": "O=C(c1ccc(F)cc1)c1ccc2nc3[nH]c(=O)[nH]c3cc2c1 [Compound 3]",
    "valueType": "pIC50",
    "reportedMeasurement": 7.43
  },
  {
    "compound": "CN(C(=O)CO/N=C(/c1ccccc1)c1ccc2nc3[nH]c(=O)[nH]c3cc2c1)C1CCCCC1 [Compound 7]",
    "valueType": "pIC50",
    "reportedMeasurement": 7.49
  },
  {
    "compound": "O=C(O)CCCCO/N=C(\\c1cccnc1)c1ccc2nc3[nH]c(=O)[nH]c3cc2c1 [Compound 13]",
    "valueType": "pIC50",
    "reportedMeasurement": 7.08
  },
  {
    "compound": "CCOC(=O)CCCCO/N=C(/c1cccnc1)c1ccc2nc3[nH]c(=O)[nH]c3cc2c1 [Compound 12]",
    "valueType": "pIC50",
    "reportedMeasurement": 7.54
  },
  {
    "compound": "CCOC(=O)CCCCO/N=C(\\c1cccnc1)c1ccc2nc3[nH]c(=O)[nH]c3cc2c1 [Compound 6]",
    "valueType": "pIC50",
    "reportedMeasurement": 7.52
  },
  {
    "compound": "COc1cccc(C(=O)c2ccc3nc4[nH]c(=O)[nH]c4cc3c2)c1 [Compound 9]",
    "valueType": "pIC50",
    "reportedMeasurement": 7.68
  },
  {
    "compound": "CN(C(=O)CO/N=C(\\c1ccccc1)c1ccc2nc3[nH]c(=O)[nH]c3cc2c1)C1CCCCC1 [Compound 10]",
    "valueType": "pIC50",
    "reportedMeasurement": 7.85
  },
  {
    "compound": "COc1ccc(C(=O)c2ccc3nc4[nH]c(=O)[nH]c4cc3c2)cc1OC [Compound 2]",
    "valueType": "pIC50",
    "reportedMeasurement": 7.48
  }
]

// data source = patent US5516908A
